# measurement target: T1, human GLP-1 receptor (human, UniProt P43220 24-463)
# T1 construct: whole, on cells; Used as purified membranes of the transfected hamster cells, not whole cells; also called hGLP-1
# measurement protocol: SPA, displacement of 125I-GLP-1(7-36)NH2, 0.005% HSA
*1 amine or outer side, *2 acyl side, *3 side chain or, on linkers, in order; H or OH if unused. Where no end group is shown, it is not given here. Side-chain parts run from the residue outwards. [ ]: non-standard residue; d: D form. The star is where a group is joined. Decanoyl(10-(4-HOOC-PhO)) = O=C(O)c1ccc(OCCCCCCCCCC(=O)*)cc1; C16 diacid = O=C(O)CCCCCCCCCCCCCCC(=O)*; γGlu = O=C(O)[C@H](CCC(=O)[*:2])N[*:1]; C12 diacid = O=C(O)CCCCCCCCCCC(=O)*; 13‑carboxytridecanoyl = C14 diacid; AEEA = NCCOCCOCC(=O)O; Aib = CC(C)(N)C(=O)O

- binder: "HAEGTFTSDVSK([AEEA-AEEA-γGlu-13‑carboxytridecanoyl])YLEEQAAREFIAK([AEEA-AEEA-γGlu-13‑carboxytridecanoyl])LVRGRG [GLP-1 derivative of Example 78: [Lys18,Glu22,Arg26,Lys31,Arg34]-GLP-1-(7-37)-peptide]"
  IC50: "< 1000 nM"
- binder: "H[Aib]EGTFTSDVSKYLEGQAAVKFIAWLVRGRG (not fully specified (residues 12, 21), also called Chem. 87) [GLP-1 derivative of Example 68: [Aib8,Lys18,Val26,Lys27,Arg34]-GLP-1-(7-37)-peptide]"
  IC50: "< 1000 nM"
- binder: "H[Aib]EGTFTSDVSK([AEEA-γGlu-13‑carboxytridecanoyl])YLEEQAVREFIAK([AEEA-γGlu-13‑carboxytridecanoyl])LVG [GLP-1 derivative of Example 20: [Aib8,Lys18,Glu22,Val25,Arg26,Lys31,Gly34]-GLP-1-(7-34)-peptide]"
  IC50: "< 1000 nM"
- binder: "HXEGTFTSDVSKYLEGQAAKEFIAWLVRGRG (Aib8; Lys18 and Lys26 each Nε-acylated with 10-(4-carboxyphenoxy)decanoyl-OEG-OEG-gGlu) [GLP-1 derivative of Example 115: [Aib8,Lys18,Arg34]-GLP-1-(7-37)-peptide]"
  IC50: "< 1000 nM"
- binder: "HAEGTFTSDVSK([AEEA-AEEA-γGlu-13‑carboxytridecanoyl])YLEEQAVRK([AEEA-AEEA-γGlu-13‑carboxytridecanoyl])FIAHLVQGRG [GLP-1 derivative of Example 118: [Lys18,Glu22,Val25,Arg26,Lys27,His31,Gln34]-GLP-1-(7-37)-peptide]"
  IC50: "< 1000 nM"
- binder: "HAEGTFTSDVSK([AEEA-AEEA-γGlu-C12 diacid])YLEEQAVREFIAK([AEEA-AEEA-γGlu-C12 diacid])LVRGRG [GLP-1 derivative of Example 124: [Lys18,Glu22,Val25,Arg26,Lys31,Arg34]-GLP-1-(7-37)-peptide]"
  IC50: "< 1000 nM"
- binder: "H[Aib]EGTFTSDVSK([AEEA-AEEA-γGlu-C16 diacid])YLEEQAAK([AEEA-AEEA-γGlu-C16 diacid])EFIAWLVRG [GLP-1 derivative of Example 138: [Aib8,Lys18,Glu22,Arg34]-GLP-1-(7-35)-peptide]"
  IC50: "< 1000 nM"
- binder: "H[Aib]EGTFTSDVSK([AEEA-AEEA-γGlu-2‑phenylcyclopropanecarbonyl])YLEEQAAK([AEEA-AEEA-γGlu-2‑phenylcyclopropanecarbonyl])EFIAWLVQGRG [GLP-1 derivative of Example 79: [Aib8,Lys18,Glu22,Gln34]-GLP-1-(7-37)-peptide]"
  IC50: "< 1000 nM"
- binder: "HAEGTFTSDVSK([γGlu-AEEA-AEEA-Decanoyl(10-(4-HOOC-PhO))])YLEGQAAK([γGlu-AEEA-AEEA-Decanoyl(10-(4-HOOC-PhO))])EFIAWLVRGRG [GLP-1 derivative of Example 106: [Lys18,Arg34]-GLP-1-(7-37)-peptide]"
  IC50: "< 1000 nM"
